experimental.system: Gal4‐NOR‐1 (human NOR‐1 LBD) (Homo sapiens, UniProt Q92570)
Construct: coding for the hinge region and LBD of the canonical isoform of NOR‐1
Sequence (Q92570 394-623 limits assumed): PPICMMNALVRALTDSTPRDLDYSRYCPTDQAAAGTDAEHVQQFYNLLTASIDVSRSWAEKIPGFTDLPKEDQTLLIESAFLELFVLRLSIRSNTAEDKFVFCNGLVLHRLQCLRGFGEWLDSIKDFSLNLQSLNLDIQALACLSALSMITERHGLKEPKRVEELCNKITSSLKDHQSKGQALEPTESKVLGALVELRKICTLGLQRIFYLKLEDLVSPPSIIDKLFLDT
test.name: Gal4 hybrid reporter gene assay for NOR‐1 activity in HEK293T cells
condition.context: Gal4‐NOR‐1, HEK293T cells, n=4; read-out: EC50 (NOR‐1), agonism
test.readout: EC50 (µM)
Numbers only, in µM.

Gal4‐NOR‐1 (human NOR‐1 LBD) (Homo sapiens, UniProt Q92570) data for O=C(O)CCc1ccc(Cl)cc1 ; its EC50: 44
